# Method Summary: self-splicing fitness, log relative to wild type (ln ratio); higher = more splicing; Tetrahymena group I intron in knt gene, E. coli kanamycin selection, DiMSum; sequences stand for … in CUCUCU…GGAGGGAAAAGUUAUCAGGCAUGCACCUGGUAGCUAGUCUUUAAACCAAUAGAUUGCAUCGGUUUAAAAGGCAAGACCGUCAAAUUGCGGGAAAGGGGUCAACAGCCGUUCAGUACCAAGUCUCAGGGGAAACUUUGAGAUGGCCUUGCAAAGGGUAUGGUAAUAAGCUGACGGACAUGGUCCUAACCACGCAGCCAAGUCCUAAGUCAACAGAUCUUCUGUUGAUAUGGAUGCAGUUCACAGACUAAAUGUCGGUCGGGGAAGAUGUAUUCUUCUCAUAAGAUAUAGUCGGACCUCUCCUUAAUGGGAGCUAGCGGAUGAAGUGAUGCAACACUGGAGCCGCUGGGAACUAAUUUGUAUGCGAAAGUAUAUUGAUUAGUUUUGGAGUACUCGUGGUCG;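 further: selection with 25 µg/mL kanamycin versus none on LB agar overnight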
# Test Parameters: 30 °C
Readout Kind: self-splicing fitness (ln)

AGUCAGCAAUAUUACGAAAU
-1.76
CGGCAGCAAUAUUACGGAGU
-3.46

The recorded self-splicing fitness (ln) for entry AUGGAGCAAUAUUACGUCGC equals -2.11

The recorded self-splicing fitness (ln) for entry CGGGAGCAAUAUUACGUUUA equals -3.47

The recorded self-splicing fitness (ln) for entry CAUUAGCAAUAUUACGUUGA equals -3.86

The recorded self-splicing fitness (ln) for entry GUCAAGCAAUAUUACGACUA equals -3.5

The recorded self-splicing fitness (ln) for entry CCGUAGCAAUAUUACGCCUG equals -0.012

The recorded self-splicing fitness (ln) for entry CACAAGCAAUAUUACGUAAG equals -0.372
